Form field: EC50 (one value per entry).
- measured_on: T1, 非典SARS-CoV-1 spike RBD (SARS-CoV-1, UniProt P59594 306-527)
- T1 construct: domain: RBD; also called 非典病毒RBD; 非典SARS-CoV-1RBD
- assay_procedure: ELISA on coated antigen, anti HA HRP
API: value field is a number in nM; no unit string.

Some solved cases for reference:
binder="S1-51 (VHH, also called 第三株RBD纳米抗体S1-51) VHH: QVQLQESGGGLVQSGGSLRLSCAASGGVSRLNSMGWYRQAPGKQRELVATIISDVGTNYADSVKGRFTISRDNAANTVYLQMNSLKFEDTAVYYCVADRAFVLRGEYEYWGQGTQVTVSS" measure_name=EC50 measured_value=19.2
binder="S1-28 (VHH, also called 第二株RBD纳米抗体S1-28) VHH: QVQLQESGGGLVQPGGSLRLSCTASGGIIRLNSMGWYRQAPGKQREPVATIVSDVGTNYADSVKGRFTISRDNAKNTIYLQMNSPKFEDTAVYYCVADRAFVLRGEYEYWGQGTQVTVSS" measure_name=EC50 measured_value=11.4
binder="S1-24 (VHH, also called 第四株RBD纳米抗体S1-24) VHH: QVQLQESGGGLVQSGGSLRLSCAASGGVSRLNSMGWYRQAQGKQRELVATIVNDVGTNYADSVKGRFTISRDNAANTVYLLMNSLKFEDTAVYNCVADRAFVLRGEYEYWGQGTQVTVSS" measure_name=EC50 measured_value=49.3

Look up EC50: R-30 (VHH, also called 第一株RBD纳米抗体R-30) VHH: QVQLQESGGGLVQSGGSLRLSCTASGGIIRLNSMGWYRQAPGKQREPVATIVSDVGTNYADSVKGRFTISRDNAKNTIYLQMNSLKFEDTAVYYCVADRAFVLRGEYEYWGQGTQVTVSS
14.7
